Hi there, I'd appreciate the recorded Ki for every entry that follows.
- TEST_SYSTEM: Sphingosine kinase 2 (Homo sapiens, UniProt Q9NRA0)
- Sequence (Q9NRA0 whole entry): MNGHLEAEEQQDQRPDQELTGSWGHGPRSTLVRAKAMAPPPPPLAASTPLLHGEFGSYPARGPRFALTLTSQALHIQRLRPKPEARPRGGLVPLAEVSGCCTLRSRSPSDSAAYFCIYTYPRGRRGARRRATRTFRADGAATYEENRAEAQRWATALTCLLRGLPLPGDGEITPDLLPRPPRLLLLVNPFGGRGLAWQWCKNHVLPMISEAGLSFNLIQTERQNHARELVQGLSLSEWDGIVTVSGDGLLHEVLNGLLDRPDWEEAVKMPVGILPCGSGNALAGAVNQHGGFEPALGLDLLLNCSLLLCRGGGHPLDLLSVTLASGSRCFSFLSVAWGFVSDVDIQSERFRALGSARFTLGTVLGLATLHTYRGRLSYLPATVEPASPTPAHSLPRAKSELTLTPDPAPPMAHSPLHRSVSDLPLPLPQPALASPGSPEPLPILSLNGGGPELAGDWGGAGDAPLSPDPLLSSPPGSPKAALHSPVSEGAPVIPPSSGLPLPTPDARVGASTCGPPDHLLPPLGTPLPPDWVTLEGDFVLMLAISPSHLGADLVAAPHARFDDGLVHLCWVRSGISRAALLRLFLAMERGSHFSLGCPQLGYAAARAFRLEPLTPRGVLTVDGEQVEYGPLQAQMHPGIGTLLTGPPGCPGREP
- TEST_DETAILS: Inhibition of recombinant human SphK2 expressed in baculovirus infected Sf9 cells assessed as decrease in [33P]S1P production using varying level of D-erythro-sphingosine as substrate in presence of [gamma33P]-ATP by scintillation proximity assay
Give bare numbers, in nM.

Exam item: Identify Ki associated with the compound CC(C)(C)c1cc(-c2noc([C@@H]3CCCN3C(=N)N)n2)ccc1OCc1ccc(C(F)(F)F)cc1.Cl
Marked response: 197

Exam item: Give recorded Ki. Cl.N=C(N)N1CCC[C@H]1c1nc(-c2ccc(OCc3ccc(C(F)(F)F)cc3)c(C3CC3)c2)no1
Marked response: 186

Exam item: Write down Ki measured for item CCCc1cc(-c2noc([C@@H]3CCCN3C(=N)N)n2)ccc1OCc1ccc(C(F)(F)F)cc1.Cl
Marked response: 201

Exam item: Read off the recorded Ki for CC(C)c1cc(-c2noc([C@@H]3CCCN3C(=N)N)n2)ccc1OCc1ccc(C(F)(F)F)cc1.Cl
Marked response: 192

Now for the compound whose Ki we want.
Exam item: Please supply the value of reported Ki for the item Cl.N=C(N)N1CCC[C@H]1c1nc(-c2ccc(OCc3ccc(C(F)(F)F)cc3)c(C(F)(F)F)c2)no1
Marked response: 89

---

So I've got a bunch of compounds here, and I need their inhibition values.
- TEST_SYSTEM: Sphingosine kinase 2 (Homo sapiens)
- TEST_DETAILS: Inhibition of recombinant human SphK2 transfected in HEK293T cells at 0.3 uM using D-erythro-sphingosine as substrate incubated for 20 mins in presence of [gamma32P]-ATP by liquid scintillation counting method relative to control
- Format: cell-based
Answers are plain numbers, in %.

Exam item: Report inhibition, nothing else, for this compound: CCCCCCCCOc1ccc(-c2noc([C@@H]3CCCN3C(=N)N)n2)cc1
Marked response: 3

Exam item: Answer with reported inhibition of Cc1cc(-c2noc([C@@H]3CCCN3C(=N)N)n2)ccc1OCc1ccc(C(F)(F)F)cc1
Marked response: 3

Exam item: Look up and state reported inhibition for Cc1cc(-c2noc([C@@H]3CCCN3C(=N)N)n2)cc(C)c1OCc1ccc(C(F)(F)F)cc1
Marked response: 23

Give measured inhibition for every item shown.
1. COc1cc(-c2noc([C@@H]3CCCN3C(=N)N)n2)ccc1OCc1ccc(C(F)(F)F)cc1
2. N=C(N)N1CCC[C@H]1c1nc(-c2ccc(OCc3ccc(C(F)(F)F)cc3)c(Br)c2)no1

Marked response:
15
24

---

- TEST_SYSTEM: Sphingosine kinase 2 (Homo sapiens)
- TEST_DETAILS: Inhibition of recombinant human SphK2 transfected in HEK293T cells at 0.3 uM using D-erythro-sphingosine as substrate incubated for 20 mins in presence of [gamma32P]-ATP by liquid scintillation counting method relative to control
- Format: cell-based
Would you mind telling me the reported inhibition of each entry?
Don't forget the unit after the number, please.

See these solved cases before continuing.
Exam item: Give me measured inhibition, please, for this compound: Cl.N=C(N)N1CCC[C@H]1c1nc(-c2ccc(OCc3ccc(C(F)(F)F)cc3)c(C(F)(F)F)c2)no1
Marked response: 65%

Exam item: For the compound Cl.N=C(N)N1CCC[C@H]1c1nc(-c2ccc(OCc3ccc(C(F)(F)F)cc3)c(C3CC3)c2)no1 , give its reported inhibition.
Marked response: 52%

Exam item: Hello, please tell me recorded inhibition for this one: N=C(N)N1CCC[C@H]1c1nc(-c2ccc(OCc3ccc(C(F)(F)F)cc3)c(Cl)c2)no1
Marked response: 33%

Exam item: Please indicate inhibition recorded for N=C(N)N1CCC[C@H]1c1nc(-c2ccc(OCc3ccc(C(F)(F)F)cc3)cc2)no1
Marked response: 2%

Exam item: Return inhibition (reported value) for this compound: C=CCc1cc(-c2noc([C@@H]3CCCN3C(=N)N)n2)ccc1OCc1ccc(C(F)(F)F)cc1.Cl
Marked response: 59%

Exam item: Consider the compound CCc1cc(-c2noc([C@@H]3CCCN3C(=N)N)n2)ccc1OCc1ccc(C(F)(F)F)cc1.Cl . State its measured inhibition.
Marked response: 42%

Exam item: Item CC(C)c1cc(-c2noc([C@@H]3CCCN3C(=N)N)n2)ccc1OCc1ccc(C(F)(F)F)cc1.Cl : provide inhibition
Marked response: 67%

Exam item: Identify measured inhibition corresponding to N=C(N)N1CCC[C@H]1c1nc(-c2ccc(OCc3ccc(C(F)(F)F)cc3)c(-c3ccc(F)cc3)c2)no1
Marked response: 31%

Report inhibition for each item below.
1. N=C(N)N1CCC[C@H]1c1nc(-c2ccc(OCc3ccc(C(F)(F)F)cc3)c(-c3ccc(C(F)(F)F)cc3)c2)no1
2. N=C(N)N1CCC[C@H]1c1nc(-c2ccc(OCc3ccc(C(F)(F)F)cc3)c(F)c2)no1
3. N=C(N)N1CCC[C@H]1c1nc(-c2ccc(OCc3ccc(C(F)(F)F)cc3)c([N+](=O)[O-])c2)no1
4. N=C(N)N1CCC[C@H]1c1nc(-c2ccc(OCc3ccc(C(F)(F)F)cc3)c(-c3ccccc3)c2)no1
5. N=C(N)N1CCC[C@H]1c1nc(-c2ccc(OCc3ccc(C(F)(F)F)cc3)c(-c3ccncc3)c2)no1
6. CCCc1cc(-c2noc([C@@H]3CCCN3C(=N)N)n2)ccc1OCc1ccc(C(F)(F)F)cc1.Cl
7. N=C(N)N1CCC[C@H]1c1nc(-c2ccc(OCc3ccc(C(F)(F)F)cc3)cc2Cl)no1

Marked response:
["12%", "23%", "33%", "28%", "8%", "60%", "40%"]

Go through the items and report each one's inhibition.
1. CC(C)(C)c1cc(-c2noc([C@@H]3CCCN3C(=N)N)n2)ccc1OCc1ccc(C(F)(F)F)cc1.Cl
2. N=C(N)N1CCC[C@H]1c1nc(-c2ccc(OCc3ccc(C(F)(F)F)cc3)cc2C(F)(F)F)no1

Marked response:
1: 66%; 2: 35%

---

- TEST_SYSTEM: Sphingosine kinase 2 (Mus musculus)
- Sequence (Q9JIA7 whole entry): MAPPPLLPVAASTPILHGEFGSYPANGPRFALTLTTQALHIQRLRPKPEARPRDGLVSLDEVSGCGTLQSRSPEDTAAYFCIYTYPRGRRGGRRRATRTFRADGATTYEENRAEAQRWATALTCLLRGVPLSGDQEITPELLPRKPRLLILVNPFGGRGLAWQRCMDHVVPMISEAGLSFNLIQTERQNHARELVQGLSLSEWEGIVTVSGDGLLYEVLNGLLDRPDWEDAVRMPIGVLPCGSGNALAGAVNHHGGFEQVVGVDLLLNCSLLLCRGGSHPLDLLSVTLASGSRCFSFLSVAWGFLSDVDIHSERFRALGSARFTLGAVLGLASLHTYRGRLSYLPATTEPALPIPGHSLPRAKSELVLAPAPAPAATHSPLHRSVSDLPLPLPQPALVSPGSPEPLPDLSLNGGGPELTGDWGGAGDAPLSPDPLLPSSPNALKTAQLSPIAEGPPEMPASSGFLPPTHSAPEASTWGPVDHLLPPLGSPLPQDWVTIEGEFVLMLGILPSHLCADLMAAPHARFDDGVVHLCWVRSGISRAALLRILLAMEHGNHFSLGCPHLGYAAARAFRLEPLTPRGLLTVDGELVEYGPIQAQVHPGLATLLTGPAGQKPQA
- TEST_DETAILS: Inhibition of recombinant mouse SphK2 expressed in baculovirus infected Sf9 insect cells using D-erythro-sphingosine as substrate measured after 30 mins in presence of [gamma32P]-ATP by liquid scintillation counting method
EXPERIMENTAL_READOUT: pKi
Give bare numbers, as −log10 of the molar value.

Exam item: Return reported pKi. Input compound: CCCCCCCCOc1ccc(-c2noc([C@@H]3CCCN3C(=N)N)n2)cc1C(F)(F)F
Marked response: 6.40
